The listing below reports pIC50 for molecules tested on SARS-CoV-2 Main Protease (SARS-CoV-2) (UniProt P0DTD1).
Note on pIC50: it is the negative log10 of concentration, concentration in mol/L.

Return reported pIC50; argument: N#CCC(=O)N1CCc2ccc(Cl)cc2C1C(=O)Nc1cncc2ccccc12 (configuration not stated) 5.19

Return reported pIC50; argument: O=C(Cc1cc(Cl)cc(N2CCN(Cc3ccc(C(F)(F)F)cc3)CC2)c1)Nc1cncc2ccccc12 5.37

Return reported pIC50; argument: Cc1cc(Nc2cc(Cl)cc(CC(=O)Nc3cncc4ccccc34)c2)cc(C)c1Br 5.67

Return reported pIC50; argument: CS(=O)(=O)N1Cc2ccc(Cl)cc2C(C(=O)Nc2cncc3c2CCCC3)C1 (configuration not stated) 6.19

The origin of these recorded values is the COVID Moonshot data (paper PMC7615835).
